Biological target: UniProt:Q9UKE5
Sequence (Q9UKE5 whole entry): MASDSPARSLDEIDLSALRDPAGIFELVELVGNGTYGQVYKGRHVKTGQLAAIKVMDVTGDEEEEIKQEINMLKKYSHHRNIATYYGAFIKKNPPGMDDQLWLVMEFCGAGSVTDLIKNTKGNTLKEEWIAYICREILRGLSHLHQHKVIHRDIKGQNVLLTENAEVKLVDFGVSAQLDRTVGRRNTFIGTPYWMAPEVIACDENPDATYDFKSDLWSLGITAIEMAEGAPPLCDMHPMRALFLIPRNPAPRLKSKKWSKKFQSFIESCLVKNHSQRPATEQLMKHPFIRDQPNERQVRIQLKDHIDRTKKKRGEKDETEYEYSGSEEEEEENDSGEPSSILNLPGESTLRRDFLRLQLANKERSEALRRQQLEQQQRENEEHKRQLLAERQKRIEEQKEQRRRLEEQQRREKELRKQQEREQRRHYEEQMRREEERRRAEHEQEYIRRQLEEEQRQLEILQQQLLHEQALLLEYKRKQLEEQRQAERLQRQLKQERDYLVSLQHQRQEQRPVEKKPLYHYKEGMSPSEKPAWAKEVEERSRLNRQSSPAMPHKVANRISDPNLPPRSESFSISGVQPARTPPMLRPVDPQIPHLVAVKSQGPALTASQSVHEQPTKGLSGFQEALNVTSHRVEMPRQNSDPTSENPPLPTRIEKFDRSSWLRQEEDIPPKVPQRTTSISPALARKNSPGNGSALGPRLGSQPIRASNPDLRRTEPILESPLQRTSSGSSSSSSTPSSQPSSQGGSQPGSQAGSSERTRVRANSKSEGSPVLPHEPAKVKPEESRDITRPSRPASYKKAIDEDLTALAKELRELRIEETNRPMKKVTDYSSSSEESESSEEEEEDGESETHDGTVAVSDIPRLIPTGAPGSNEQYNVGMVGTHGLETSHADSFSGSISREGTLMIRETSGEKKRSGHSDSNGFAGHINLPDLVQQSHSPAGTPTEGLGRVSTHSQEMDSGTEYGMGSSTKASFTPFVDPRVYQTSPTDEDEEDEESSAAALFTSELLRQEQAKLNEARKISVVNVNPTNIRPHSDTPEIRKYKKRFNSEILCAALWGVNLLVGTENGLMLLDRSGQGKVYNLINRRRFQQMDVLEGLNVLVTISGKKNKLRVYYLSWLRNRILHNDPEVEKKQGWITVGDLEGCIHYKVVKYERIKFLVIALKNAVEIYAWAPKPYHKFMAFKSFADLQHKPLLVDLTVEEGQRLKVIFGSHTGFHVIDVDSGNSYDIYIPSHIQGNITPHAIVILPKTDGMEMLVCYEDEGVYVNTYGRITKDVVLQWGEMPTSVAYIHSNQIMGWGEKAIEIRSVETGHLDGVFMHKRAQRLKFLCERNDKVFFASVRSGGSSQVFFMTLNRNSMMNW
Calls of active or inactive are those of the source.
compounds and their reported Kd

CC[C@H](Nc1ncnc2[nH]cnc12)c1nc2cccc(F)c2c(=O)n1-c1ccccc1 ... > 30 µM (inactive)
O=C(O)[C@]1(Cc2cccc(Nc3nccs3)n2)CC[C@@H](Oc2cccc(Cl)c2F)CC1 ... > 30 µM (inactive)
CNS(=O)(=O)Nc1nccc(Cc2c(C)c3ccc(Oc4ncccn4)cc3oc2=O)c1F ... > 30 µM (inactive)

Next up:
Fill in reported Kd for this entry: `COC(=O)N[C@@H](C)CNc1nccc(-c2cn(C(C)C)nc2-c2cc(Cl)cc(NS(C)(=O)=O)c2F)n1`
> 30 µM (inactive)

###

Target: Phosphatidylinositol 5-phosphate 4-kinase type-2 gamma (Homo sapiens); further: in the data inactive means no Kd found up to 30 µM
Sequence (Q8TBX8 whole entry): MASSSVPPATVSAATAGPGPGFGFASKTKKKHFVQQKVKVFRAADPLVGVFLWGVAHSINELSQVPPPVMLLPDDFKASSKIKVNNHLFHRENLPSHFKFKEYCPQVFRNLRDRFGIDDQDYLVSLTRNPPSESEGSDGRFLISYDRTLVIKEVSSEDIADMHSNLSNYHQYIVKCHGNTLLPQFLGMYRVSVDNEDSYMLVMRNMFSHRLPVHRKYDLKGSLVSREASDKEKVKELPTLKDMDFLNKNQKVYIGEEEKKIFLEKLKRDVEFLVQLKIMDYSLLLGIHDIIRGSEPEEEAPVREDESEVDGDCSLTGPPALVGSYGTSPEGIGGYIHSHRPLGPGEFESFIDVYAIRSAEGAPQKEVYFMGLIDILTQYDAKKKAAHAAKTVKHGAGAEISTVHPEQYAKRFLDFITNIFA
The source made the active and inactive calls.
List of Kd values.

COc1cc(N2CCC(N3CCN(C)CC3)CC2)ccc1Nc1ncnc(Nc2ccccc2S(=O)(=O)C(C)C)n1 [ASP-3026] ... > 30 µM (inactive)

Supply reported Kd belonging to this molecule: COc1cc2nccc(Oc3ccc(NC(=O)NC4CC4)c(Cl)c3)c2cc1C(N)=O [LENVATINIB]
> 30 µM (inactive)

Report Kd, nothing else, for this molecule: CC(C)Nc1cc(-c2c[nH]c(C(=O)N[C@H](CO)c3cccc(Cl)c3)c2)c(Cl)cn1 [ULIXERTINIB]
> 30 µM (inactive)

Note down Kd recorded for CNC(=O)c1ccc(-c2cnc3ncc(Cc4ccc5ncccc5c4)n3n2)cc1F [CAPMATINIB]
> 30 µM (inactive)

Look up and report measured Kd for this entry: CNC(=O)c1cc(Oc2ccc(NC(=O)Nc3ccc(Cl)c(C(F)(F)F)c3)c(F)c2)ccn1 [REGORAFENIB]
> 30 µM (inactive)

Provide only the value of recorded Kd for `Cc1cc(-c2cc(O)ccc2Cl)cc2nnc(Nc3ccc(OCCN4CCCC4)cc3)nc12`
> 30 µM (inactive)

Give the reported Kd for this molecule. CC(=O)Nc1cccc(-n2c(=O)n(C3CC3)c(=O)c3c(Nc4ccc(I)cc4F)n(C)c(=O)c(C)c32)c1 [TRAMETINIB]
> 30 µM (inactive)

Please supply the value of reported Kd for the item COc1cc(OC)c(/C=C/S(=O)(=O)Cc2ccc(OC)c(NCC(=O)O)c2)c(OC)c1 [RIGOSERTIB]
> 30 µM (inactive)

Consider the molecule CNC(=O)CN1CCC(Oc2cc3c(Nc4cccc(Cl)c4F)ncnc3cc2OC)CC1 [SAPITINIB] and give its recorded Kd.
> 30 µM (inactive)

Let me know recorded Kd for CNS(=O)(=O)Nc1nccc(Cc2c(C)c3ccc(Oc4ncccn4)cc3oc2=O)c1F [AVUTOMETINIB] , thanks.
> 30 µM (inactive)

Provide only the value of recorded Kd for COCCNCc1ccc(-c2cc3nccc(Oc4ccc(NC(=S)NC(=O)Cc5ccc(F)cc5)cc4F)c3s2)nc1 [GLESATINIB]
> 30 µM (inactive)
